tgt: α1a-AR (Homo sapiens, UniProt P35348)
Construct: expressed in transfected cells; host or cells: COS-7
Sequence (P35348 whole entry): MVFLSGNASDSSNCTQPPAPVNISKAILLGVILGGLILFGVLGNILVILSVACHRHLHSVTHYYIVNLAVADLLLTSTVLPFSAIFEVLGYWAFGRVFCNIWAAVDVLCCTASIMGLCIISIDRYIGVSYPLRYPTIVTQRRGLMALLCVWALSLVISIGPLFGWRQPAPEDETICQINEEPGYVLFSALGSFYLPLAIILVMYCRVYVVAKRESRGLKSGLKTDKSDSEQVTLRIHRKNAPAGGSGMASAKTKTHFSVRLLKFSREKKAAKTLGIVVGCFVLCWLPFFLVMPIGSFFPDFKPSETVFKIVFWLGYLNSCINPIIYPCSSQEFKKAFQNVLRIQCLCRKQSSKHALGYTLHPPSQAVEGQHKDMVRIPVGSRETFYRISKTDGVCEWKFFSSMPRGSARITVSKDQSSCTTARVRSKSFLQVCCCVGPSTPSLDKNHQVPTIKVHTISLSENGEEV
experiment_summary: α1-Adrenergic receptor radio-ligand (125I-HEAT) binding assay, α1a subtype
condition_summary: COS-7 cell membranes transfected with α1a-AR, 125I-HEAT 50 pM; read-out: Receptor Binding, Ki α1a-AR
property: log10 Ki (log10 of the value in nM)

{"compound": "COc1ccccc1C1CCN(Cc2ccc(C(=O)N3CCc4ccc(N)cc43)cc2)CC1 [Cpd 34]", "tgt": "α1a-AR (Homo sapiens, UniProt P35348)", "log10 Ki": 1.54}
{"compound": "COc1ccccc1C1CCN(Cc2cccc(C(=O)N3CCc4ccc(NS(=O)(=O)c5c(F)cccc5F)cc43)c2)CC1 [Cpd 61]", "tgt": "α1a-AR (Homo sapiens, UniProt P35348)", "log10 Ki": 1.19}
{"compound": "CC(C)COc1ccccc1N1CCN(Cc2cccc(C(=O)N3CCc4ccccc43)c2)CC1 [Cpd 65]", "tgt": "α1a-AR (Homo sapiens, UniProt P35348)", "log10 Ki": 1.81}
{"compound": "COc1ccccc1C1CCN(Cc2ccc(C(=O)N3CCc4ccc(NC(=O)c5c(OC)cccc5OC)cc43)cc2)CC1 [Cpd 39]", "tgt": "α1a-AR (Homo sapiens, UniProt P35348)", "log10 Ki": 1.87}
{"compound": "COc1ccccc1C1CCN(Cc2ccc(C(=O)N3CCc4ccccc43)cc2)CC1 [Cpd 50]", "tgt": "α1a-AR (Homo sapiens, UniProt P35348)", "log10 Ki": 0.89}
{"compound": "COc1cccc(OC)c1C(=O)Nc1ccc2c(c1)CCN2C(=O)c1cccc(CN2CCN(c3ccccc3OC(C)C)CC2)c1 [Cpd 26]", "tgt": "α1a-AR (Homo sapiens, UniProt P35348)", "log10 Ki": 1.53}
{"compound": "CCCCCCCCc1ccc(CNc2ccc3c(c2)CCN3C(=O)c2cccc(CN3CCN(c4ccccc4OC(C)C)CC3)c2)cc1 [Cpd 23]", "tgt": "α1a-AR (Homo sapiens, UniProt P35348)", "log10 Ki": 2.29}
{"compound": "N#Cc1ccccc1N1CCN(Cc2cccc(C(=O)N3CCc4ccccc43)c2)CC1 [Cpd 31]", "tgt": "α1a-AR (Homo sapiens, UniProt P35348)", "log10 Ki": 2.23}
{"compound": "CC(C)Oc1ccccc1N1CCN(Cc2cccc(C(=O)N3CCc4cc(NCc5ccc(C(F)(F)F)cc5)ccc43)c2)CC1 [Cpd 8]", "tgt": "α1a-AR (Homo sapiens, UniProt P35348)", "log10 Ki": 1.15}
{"compound": "CC(C)Oc1ccccc1N1CCN(Cc2cccc(C(=O)N3CCc4cc(NS(=O)(=O)c5ccc6ccccc6c5)ccc43)c2)CC1 [Cpd 2]", "tgt": "α1a-AR (Homo sapiens, UniProt P35348)", "log10 Ki": 0.04}
{"compound": "CC(C)Oc1ccccc1C1CCN(Cc2cccc(C(=O)N3CCc4ccc(NCc5ccccc5F)cc43)c2)CC1 [Cpd 57]", "tgt": "α1a-AR (Homo sapiens, UniProt P35348)", "log10 Ki": 0.26}
{"compound": "CC(C)Oc1ccccc1N1CCN(Cc2cccc(C(=O)N3CCc4ccc(NC(=O)c5ccc(F)cc5)cc43)c2)CC1 [Cpd 48]", "tgt": "α1a-AR (Homo sapiens, UniProt P35348)", "log10 Ki": 1.87}
{"compound": "CC(C)Oc1ccccc1CN1CCN(Cc2cccc(C(=O)N3CCc4ccccc43)c2)CC1 [Cpd 56]", "tgt": "α1a-AR (Homo sapiens, UniProt P35348)", "log10 Ki": 3.08}
{"compound": "CCOC(OCC)c1ccc(CNc2ccc3c(c2)N(C(=O)c2cccc(CN4CCN(c5ccccc5OC(C)C)CC4)c2)CC3)cc1 [Cpd 11]", "tgt": "α1a-AR (Homo sapiens, UniProt P35348)", "log10 Ki": 0.70}
{"compound": "CC(C)Oc1ccccc1N1CCN(Cc2cccc(C(=O)N3CCc4ccc(NCc5c(F)cccc5F)cc43)c2)CC1 [Cpd 6]", "tgt": "α1a-AR (Homo sapiens, UniProt P35348)", "log10 Ki": 0.30}
{"compound": "CCOC(OCC)c1ccc(CNc2ccc3c(c2)CCN3C(=O)c2ccc(CN3CCC(c4ccccc4OC)CC3)cc2)cc1 [Cpd 36]", "tgt": "α1a-AR (Homo sapiens, UniProt P35348)", "log10 Ki": 1.59}
{"compound": "CC(C)Oc1ccccc1CN1CCN(Cc2ccc(C(=O)N3CCc4ccccc43)cc2)CC1 [Cpd 52]", "tgt": "α1a-AR (Homo sapiens, UniProt P35348)", "log10 Ki": 2.09}
{"compound": "CC(C)Oc1ccccc1N1CCN(Cc2cccc(C(=O)N3CCc4ccc(NC(N)=O)cc43)c2)CC1 [Cpd 49]", "tgt": "α1a-AR (Homo sapiens, UniProt P35348)", "log10 Ki": 1.15}
{"compound": "CC(C)Oc1ccccc1N1CCN(Cc2cccc(C(=O)N3CCc4cc(NC(=O)Nc5ccccc5)ccc43)c2)CC1 [Cpd 21]", "tgt": "α1a-AR (Homo sapiens, UniProt P35348)", "log10 Ki": 1.86}
{"compound": "CC(C)(C)OC(=O)N1CCN(Cc2cccc(C(=O)N3CCc4ccccc43)c2)CC1 [Cpd 54]", "tgt": "α1a-AR (Homo sapiens, UniProt P35348)", "log10 Ki": 1.83}
{"compound": "COc1cccc(OC)c1C(=O)Nc1ccc2c(c1)N(C(=O)c1cccc(CN3CCN(c4ccccc4OC(C)C)CC3)c1)CC2 [Cpd 28]", "tgt": "α1a-AR (Homo sapiens, UniProt P35348)", "log10 Ki": 1.23}
{"compound": "CCCCCCCCc1ccc(CNc2ccc3c(c2)N(C(=O)c2cccc(CN4CCN(c5ccccc5OC(C)C)CC4)c2)CC3)cc1 [Cpd 10]", "tgt": "α1a-AR (Homo sapiens, UniProt P35348)", "log10 Ki": 2.92}
{"compound": "CC(C)Oc1ccccc1N1CCN(Cc2cccc(C(=O)N3CCc4ccc(NS(=O)(=O)c5c(F)cccc5F)cc43)c2)CC1 [Cpd 45]", "tgt": "α1a-AR (Homo sapiens, UniProt P35348)", "log10 Ki": 0.41}
{"compound": "CC(C)Oc1ccccc1N1CCN(Cc2cccc(C(=O)N3CCc4ccc(NC(=O)Nc5ccccc5)cc43)c2)CC1 [Cpd 22]", "tgt": "α1a-AR (Homo sapiens, UniProt P35348)", "log10 Ki": 1.59}
{"compound": "COc1ccccc1C1CCN(Cc2cccc(C(=O)N3CCc4ccc(NCc5ccccc5F)cc43)c2)CC1 [Cpd 59]", "tgt": "α1a-AR (Homo sapiens, UniProt P35348)", "log10 Ki": 0.92}
{"compound": "CC(C)Oc1ccccc1N1CCN(Cc2cccc(C(=O)N3CCc4cc(F)ccc43)c2)CC1 [Cpd 68]", "tgt": "α1a-AR (Homo sapiens, UniProt P35348)", "log10 Ki": 1.11}
{"compound": "CC(C)Oc1ccccc1N1CCN(Cc2cccc(C(=O)N3CCc4ccc(NC5CCc6ccccc6C5)cc43)c2)CC1 (stereo not drawn) [Cpd 16]", "tgt": "α1a-AR (Homo sapiens, UniProt P35348)", "log10 Ki": 0.74}
{"compound": "CC(C)Oc1ccccc1C1CCN(Cc2cccc(C(=O)N3CCc4ccc(NC(=O)Nc5c(F)cccc5F)cc43)c2)CC1 [Cpd 60]", "tgt": "α1a-AR (Homo sapiens, UniProt P35348)", "log10 Ki": -0.40}
{"compound": "COc1cccc(OC)c1CNc1ccc2c(c1)CCN2C(=O)c1cccc(CN2CCN(c3ccccc3OC(C)C)CC2)c1 [Cpd 25]", "tgt": "α1a-AR (Homo sapiens, UniProt P35348)", "log10 Ki": 1.83}
{"compound": "CC(C)Oc1ccccc1N1CCN(Cc2cccc(C(=O)N3CCc4cc(NCc5c(F)cccc5F)ccc43)c2)CC1 [Cpd 9]", "tgt": "α1a-AR (Homo sapiens, UniProt P35348)", "log10 Ki": 1.41}

Data credit: patent US20060183902A1
